Collected inhibition at 3 µM values appear next to each entry.
System: THP-1 cells
Assay: Human monocytic THP-1 cell differentiation assay for soluble proteins (THP-1 soluble protein assay)
Assay type: cell-based
Settings: LPS-stimulated THP-1 cells, soluble protein not given
Counter-ions that a name gives are not always drawn.
Provide only the numeric value, understood in %.

Past entries and their recorded results:
>>> observed_result("CC#CCOc1ccc(S(=O)(=O)C2(C(=O)NO)CCN(Cc3ccccc3)CC2)cc1")
25
>>> observed_result("C#CCOc1ccc(S(=O)(=O)C2(C(=O)NO)CCN(Cc3ccc(Br)cc3)CC2)cc1")
7
>>> observed_result("CCC#CCOc1ccc(S(=O)(=O)C2(C(=O)NO)CCN(Cc3ccc(Br)cc3)CC2)cc1")
30
>>> observed_result("CC#CCOc1ccc(S(=O)(=O)CC2(C(=O)NO)CCOCC2)cc1")
45
>>> observed_result("CC#CCOc1ccc(S(=O)(=O)C2(C(=O)NO)CCOCC2)cc1")
47

Exercise: Name the recorded inhibition at 3 µM for CC#CCOc1ccc(S(=O)(=O)C2(C(=O)NO)CCN(Cc3ccc(C)cc3)CC2)cc1 .
Solution: 12

Exercise: Name the recorded inhibition at 3 µM for CC#CCOc1ccc(S(=O)(=O)CC2(C(=O)NO)CCN(C(=O)C3(C)COC(C)(C)OC3)CC2)cc1 .
Solution: 78

Exercise: Name the recorded inhibition at 3 µM for CC#CCOc1ccc(S(=O)(=O)C2(C(=O)NO)CCN(C(=O)N3CCCC3)CC2)cc1 .
Solution: 18

Exercise: Name the recorded inhibition at 3 µM for CC#CCOc1ccc([S+]([O-])C2(C(=O)NO)CCNCC2)cc1 (centres unmarked) [Example 81, hydrochloride] .
Solution: 25

Exercise: Name the recorded inhibition at 3 µM for CC#CCOc1ccc(S(=O)(=O)CC2(C(=O)NO)CCN(C(=O)OCc3ccccc3)CC2)cc1 .
Solution: 41

Exercise: Name the recorded inhibition at 3 µM for CC#CCOc1ccc(SCC2(C(=O)NO)CCN(C(=O)OC(C)(C)C)CC2)cc1 .
Solution: 0

Exercise: Name the recorded inhibition at 3 µM for CC#CCOc1ccc([S+]([O-])CC2(C(=O)NO)CCOCC2)cc1 (centres unmarked) .
Solution: 4

Exercise: Name the recorded inhibition at 3 µM for O=C(NO)C1(S(=O)(=O)c2ccc(OCC#CCN3CCCCC3)cc2)CCN(Cc2ccc(Br)cc2)CC1 .
Solution: 58

Exercise: Name the recorded inhibition at 3 µM for CC#CCOc1ccc(S(=O)(=O)C2(C(=O)NO)CCN(Cc3ccc(C(N)=O)cc3)CC2)cc1 [Example 79, hydrochloride] .
Solution: 83
